TESTED SYSTEM: FXR (Homo sapiens, UniProt Q96RI1)
Construct: using a full length FXR on a natural response element; expressed in transfected cells
Sequence (Q96RI1 whole entry, species assumed): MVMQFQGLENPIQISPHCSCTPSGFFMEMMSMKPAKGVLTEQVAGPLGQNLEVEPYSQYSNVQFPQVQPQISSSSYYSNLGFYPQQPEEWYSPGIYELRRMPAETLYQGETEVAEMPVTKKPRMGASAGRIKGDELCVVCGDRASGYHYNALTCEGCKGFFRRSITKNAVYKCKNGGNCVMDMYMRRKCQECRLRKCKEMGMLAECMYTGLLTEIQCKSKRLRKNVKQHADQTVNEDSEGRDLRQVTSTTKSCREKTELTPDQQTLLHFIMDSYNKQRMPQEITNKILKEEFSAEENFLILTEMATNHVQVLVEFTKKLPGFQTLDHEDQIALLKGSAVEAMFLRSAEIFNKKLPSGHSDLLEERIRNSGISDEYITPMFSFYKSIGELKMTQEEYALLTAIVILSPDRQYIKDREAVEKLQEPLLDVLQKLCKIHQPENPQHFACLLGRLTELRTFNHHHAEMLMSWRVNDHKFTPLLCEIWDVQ
RUN DESCRIPTION: cell-based FXR transcription assay, FXR responsive promoter linked to luciferase reporter
CONDITION DESCRIPTION: cell-based FXR reporter assay; footnote a not given
READOUT: RE^a

# example entries with known answers
COC(=O)C=Cc1cccc(N(Cc2ccc(C=CC(=O)OC(C)(C)C)cc2OC(C)=O)C(=O)C2CCCCC2)c1 [Compound 164] ... 0.16
COC(=O)/C=C/c1cccc(N(Cc2ccc(/C=C/c3ccc(F)cc3)cc2)C(=O)C(C)C)c1 [Compound 205] ... 1.19

[1] COC(=O)C=Cc1cccc(N(Cc2ccc(C=CC(=O)OC(C)(C)C)cc2O)C(=O)C2CCCCC2)c1 [Compound 161]
[2] COC(=O)C=Cc1cccc(N(Cc2ccc(C=CC(=O)N(C)C)cc2)C(=O)C2CCCCC2)c1 [Compound 154]
[3] COC(=O)/C=C/c1cccc(N(Cc2ccc(/C=C/c3cccc(C(F)(F)F)c3)cc2)C(=O)NC(C)C)c1 [Compound 188]
[4] COC(=O)/C=C/c1cccc(N(Cc2ccc(-c3ccc(N(C)C)cc3)cc2)C(=O)NC(C)C)c1 [Compound 261]
[5] COC(=O)C=Cc1cccc(N(Cc2ccc(C=CC(=O)OC(C)(C)C)cc2)C(=O)C2CCC2)c1 [Compound 141]
Hi! Can you put these in order of RE^a, lowest number first? Quick reminder: the answer is the labels in the order asked. 1, 3, 2, 4, 5

[1] COC(=O)/C=C/c1cccc(N(Cc2ccc(-c3ccc(C)cc3)cc2)C(=O)NC(C)C)c1 [Compound 237]
[2] COC(=O)/C=C/c1cccc(N(Cc2ccc(-c3cccc(OC)c3)cc2)C(=O)NC(C)C)c1 [Compound 225]
[3] COC(=O)/C=C/c1cccc(N(Cc2ccc(Br)cc2)C(=O)C2CCCCC2)c1 [Compound 112]
[4] COC(=O)C=Cc1cccc(N(Cc2ccc(C=Cc3cccc(Cl)c3)cc2)C(=O)C2CCCCC2)c1 [Compound 180]
Ordering: ascending RE^a. List each label, following the requested order. 3, 2, 1, 4

---

TESTED SYSTEM: FXR (Homo sapiens)
Construct: using a full length FXR on a natural response element; expressed in transfected cells
RUN DESCRIPTION: cell-based FXR transcription assay, FXR responsive promoter linked to luciferase reporter
CONDITION DESCRIPTION: cell-based reporter assay, SAR discussion
READOUT: FXR activation, in words

COC(=O)/C=C/c1cccc(N(Cc2ccc(-c3ccc(F)c(Cl)c3)cc2)C(=O)C2CCCCC2)c1 ... excellent activity
COC(=O)/C=C/c1cccc(N(Cc2ccc(-c3c(OC)cccc3OC)cc2)C(=O)C(C)C)c1 ... excellent activity
COC(=O)/C=C/c1cccc(N(Cc2ccc(/C=C/c3ccccc3)cc2)C(=O)C(C)C)c1 ... excellent activity
COC(=O)C=Cc1cccc(N(Cc2ccc(C=CC(=O)OC(C)(C)C)cc2)C(=O)C2CCCC2)c1 ... excellent activity
COC(=O)/C=C/c1cccc(N(Cc2ccc(-c3ccc(SC)cc3)cc2)C(=O)C2CCCCC2)c1 ... excellent activity

Query "COC(=O)/C=C/c1cccc(N(Cc2ccc(/C=C/c3cccc(Cl)c3)cc2)C(=O)C(C)C)c1" yields FXR activation, in words of excellent activity

The reported FXR activation, in words of the compound "COC(=O)/C=C/c1cccc(N(Cc2ccc(-c3ccc(OC)cc3)cc2)C(=O)C2CCCCC2)c1" was excellent activity

// FXR activation, in words value for "COC(=O)/C=C/c1cccc(N(C)Cc2ccc3c(c2OC)OC(C)(C)C=C3)c1" : inactive

FXR activation, in words recorded for this compound, "COC(=O)/C=C/c1cccc(N(Cc2ccc3c(c2OC)OC(C)(C)C=C3)C(=S)C2CC2)c1" , is inactive

Query "COC(=O)/C=C/c1cccc(N(Cc2ccc(-c3ccc(N(C)C)cc3)cc2)C(=O)C2CCCCC2)c1" yields FXR activation, in words of excellent activity

---

TESTED SYSTEM: FXR (Homo sapiens)
Construct: using a full length FXR on a natural response element; expressed in transfected cells
RUN DESCRIPTION: cell-based FXR transcription assay, FXR responsive promoter linked to luciferase reporter
CONDITION DESCRIPTION: cell-based FXR reporter assay; footnote a not given
READOUT: RE^a

Previously resolved entries follow.
COC(=O)/C=C/c1cccc(N(Cc2ccc(/C=C/c3c(Cl)cccc3Cl)cc2)C(=O)C(C)C)c1 [Compound 178] ... 0.14
COC(=O)/C=C/c1cccc(N(Cc2ccc(/C=C/c3c(Cl)cccc3Cl)cc2)C(=O)C2CCCCC2)c1 [Compound 177] ... 0.12
COC(=O)C=Cc1cccc(N(Cc2ccc(C=Cc3c(F)cccc3F)cc2)C(=O)C2CCCCC2)c1 [Compound 189] ... 0.94
COC(=O)C=Cc1cccc(N(Cc2ccc(C(C)(C)C)cc2)C(=O)C2CCCCC2)c1 [Compound 148] ... 0.15

[A] COC(=O)/C=C/c1cccc(N(Cc2cc(OC)cc(OC)c2)C(=O)C2CCCCC2)c1 [Compound 118]
[B] COC(=O)/C=C/c1cccc(N(Cc2ccc(/C=C/c3cccc(C(F)(F)F)c3)cc2)C(=O)C(C)C)c1 [Compound 187]
[C] COC(=O)/C=C/c1cccc(N(Cc2ccc(/C=C/C(=O)OC(C)(C)C)cc2)C(=O)c2ccccc2)c1 [Compound 143]
[D] COC(=O)/C=C/c1cccc(N(Cc2ccc(/C=C/c3ccccc3)cc2)C(=O)C(C)C)c1 [Compound 198]
Ranking field: RE^a; order: falling. Put the labels in the requested order and list them out. C, D, B, A
(C: 1.96, D: 1.33, B: 0.70, A: 0.11)

---

TESTED SYSTEM: FXR (Homo sapiens)
Construct: using a full length FXR on a natural response element
RUN DESCRIPTION: cell-based FXR transcription assay, FXR responsive promoter linked to luciferase reporter
CONDITION DESCRIPTION: cell-based FXR reporter assay; determined with Prism 3.0
READOUT: EC50 (nM)

CCOC(=O)C=Cc1cccc(N(Cc2ccc(C=CC(=O)OC(C)(C)C)cc2)C(=O)C2CCCCC2)c1 ... 256

[1] COC(=O)/C=C/c1cccc(N(Cc2ccc(/C=C/c3ccc(F)cc3)cc2)C(=O)C(C)C)c1
[2] COC(=O)/C=C/c1cccc(N(Cc2ccc(-c3cccc(Cl)c3)cc2)C(=O)C(C)C)c1
[3] COC(=O)/C=C/c1cccc(N(Cc2ccc(/C=C/c3ccc(C)cc3)cc2)C(=O)C(C)C)c1
Task field, ranking: reported EC50, descending order. Returns: the labels listed in the requested order. 3, 1, 2
(3: 1410 nM, 1: 120 nM, 2: 77 nM)

---

TESTED SYSTEM: FXR (Homo sapiens, UniProt Q96RI1)
Construct: using a full length FXR on a natural response element; expressed in transfected cells
RUN DESCRIPTION: cell-based FXR transcription assay, FXR responsive promoter linked to luciferase reporter
CONDITION DESCRIPTION: cell-based FXR reporter assay; footnote a not given
READOUT: RE^a

COC(=O)/C=C/c1cccc(NC(=O)C2CCCCC2)c1 [Compound 132] ... 0.09
COC(=O)/C=C/c1cccc(N(Cc2ccc(-c3cccc(OC)c3)cc2)C(=O)C(C)C)c1 [Compound 224] ... 1.28
COC(=O)/C=C/c1cccc(N(Cc2ccc(-c3ccc(C(C)(C)C)cc3)cc2)C(=O)C2CCCCC2)c1 [Compound 262] ... 1.38

[A] COC(=O)C=Cc1cccc(N(Cc2ccc(C=Cc3ccccc3F)cc2)C(=O)C2CCCCC2)c1 [Compound 192]
[B] COC(=O)/C=C/c1cccc(N(Cc2ccc3c(c2OC)OC(C)(C)C2C3C2(Cl)Cl)C(=O)C2CCCCC2)c1 (stereo not drawn) [Compound 149]
Could you determine which record has the numerically smaller RE^a? Candidates: A and B Reply briefly: the label of your chosen item. B
(B: 0.50, A: 1.41)

[a] COC(=O)/C=C/c1cccc(N(Cc2ccc(-c3ccc(SC)cc3)cc2)C(=O)C(C)C)c1 [Compound 216]
[b] COCC=Cc1cccc(N(Cc2ccc(C=CC(=O)OC(C)(C)C)cc2)C(=O)C2CCCCC2)c1 [Compound 136]
[c] COC(=O)/C=C/c1cccc(N(Cc2ccc(-c3c(OC)cccc3OC)cc2)C(=O)C2CCCCC2)c1 [Compound 256]
[d] COC(=O)/C=C/c1cccc(N(Cc2ccc(-c3ccccc3OC)cc2)C(=O)C(C)C)c1 [Compound 219]
Put the items in order so that reported RE^a rises from first to last. Respond with the label ranking, as requested. c, d, a, b
(c: 0.12, d: 0.28, a: 0.98, b: 1.68)

[a] COC(=O)/C=C/c1cccc(N(Cc2ccc(/C=C/c3cccc(F)c3)cc2)C(=O)C(C)C)c1 [Compound 202]
[b] COC(=O)C=Cc1cccc(N(Cc2ccc(C=CC(=O)OC(C)(C)C)cc2)C(=O)C2CCCC2)c1 [Compound 142]
Smaller RE^a value? Options are a and b Give the label under which the chosen entry appears. a

[P] COC(=O)/C=C/c1cccc(N(Cc2ccc(/C=C/c3ccccc3F)cc2)C(=O)NC(C)C)c1 [Compound 194]
[Q] COC(=O)C=Cc1cccc(N(Cc2ccc(C=CC(=O)OC(C)(C)C)cc2OC(=O)c2ccccc2)C(=O)C2CCCCC2)c1 [Compound 165]
// compare: P vs Q , metric RE^a, want the smaller Indicate your choice by writing its label. Q

Where these numbers come from: patent US7671085B2
